biological target: serine acetyltransferase; test: Serine acetyltransferase enzyme activity test with and without L-cysteine (inhibitor constant Ki, specific activity); assay type: biochemical, E. coli; details: Table 4; alleles from site-specific mutagenesis; inhibitor L-cysteine
pKi: −log10 of the molar value.
Reported pKi is given for each of the following molecules.

| molecule | pKi |
| --- | --- |
| cysEIV: double mutant Ala237->Val237, Gly238->Ser238 (protein, UniProt P0A9D4 1-273, looked up, variant A237V G238S) Serine acetyltransferase: MSCEELEIVWNNIKAEARTLADCEPMLASFYHATLLKHENLGSALSYMLANKLSSPIMPAIAIREVVEEAYAADPEMIASAACDIQAVRTRDPAVDKYSTPLLYLKGFHALQAYRIGHWLWNQGRRALAIFLQNQVSVTFQVDIHPAAKIGRGIMLDHATGIVVGETAVIENDVSILQSVTLGGTGKSGGDRHPKIREGVMIGAGAKILGNIEVGRGAKIGAGSVVLQPVPPHTTAVSVPARIVGKPDSDKPSMDMDQHFNGINHTFEYGDGI | 4.40 |
| cysEV: triple mutant Val237, Ser238, Ile256 (protein, UniProt P0A9D4 1-273, looked up, variant A237V G238S M256I) Serine acetyltransferase: MSCEELEIVWNNIKAEARTLADCEPMLASFYHATLLKHENLGSALSYMLANKLSSPIMPAIAIREVVEEAYAADPEMIASAACDIQAVRTRDPAVDKYSTPLLYLKGFHALQAYRIGHWLWNQGRRALAIFLQNQVSVTFQVDIHPAAKIGRGIMLDHATGIVVGETAVIENDVSILQSVTLGGTGKSGGDRHPKIREGVMIGAGAKILGNIEVGRGAKIGAGSVVLQPVPPHTTAVSVPARIVGKPDSDKPSMDIDQHFNGINHTFEYGDGI | 5.00 |
| cysEVI: double mutant Ser238, Ile256 (protein, UniProt P0A9D4 1-273, looked up, variant G238S M256I) Serine acetyltransferase: MSCEELEIVWNNIKAEARTLADCEPMLASFYHATLLKHENLGSALSYMLANKLSSPIMPAIAIREVVEEAYAADPEMIASAACDIQAVRTRDPAVDKYSTPLLYLKGFHALQAYRIGHWLWNQGRRALAIFLQNQVSVTFQVDIHPAAKIGRGIMLDHATGIVVGETAVIENDVSILQSVTLGGTGKSGGDRHPKIREGVMIGAGAKILGNIEVGRGAKIGAGSVVLQPVPPHTTAASVPARIVGKPDSDKPSMDIDQHFNGINHTFEYGDGI | 5.00 |
| cysEXXIII: triple mutant Ala167, Val237, Ser238 (protein, UniProt P0A9D4 1-273, looked up, variant T167A A237V G238S) Serine acetyltransferase: MSCEELEIVWNNIKAEARTLADCEPMLASFYHATLLKHENLGSALSYMLANKLSSPIMPAIAIREVVEEAYAADPEMIASAACDIQAVRTRDPAVDKYSTPLLYLKGFHALQAYRIGHWLWNQGRRALAIFLQNQVSVTFQVDIHPAAKIGRGIMLDHATGIVVGEAAVIENDVSILQSVTLGGTGKSGGDRHPKIREGVMIGAGAKILGNIEVGRGAKIGAGSVVLQPVPPHTTAVSVPARIVGKPDSDKPSMDMDQHFNGINHTFEYGDGI | 2.64 |

Ref: patent US6218168A
